subject.of.test: T1, monkey TIM-3 extracellular domain protein with hFc tag (cTIM-3-hFc) (monkey)
T1 construct: not shown: human IgG Fc fragment (hFc) of the pCpC vector
T1 chain: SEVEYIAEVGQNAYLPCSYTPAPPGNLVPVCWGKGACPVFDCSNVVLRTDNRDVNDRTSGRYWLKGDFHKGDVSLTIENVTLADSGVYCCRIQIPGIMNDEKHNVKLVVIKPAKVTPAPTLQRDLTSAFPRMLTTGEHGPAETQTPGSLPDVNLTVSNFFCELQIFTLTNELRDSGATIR
assay.text: ELISA, coated monkey TIM-3 ECD protein, 66.667 nM antibody
The following binders are shown together with reported OD450 values.
Reply: number alone, nothing else.

Consider the worked cases shown below.
# binder, property, observed.value
measured = [
    ("7A4F10 fully human TIM-3 antibody (human IgG4, kappa) (antibody, V domains shown) VH: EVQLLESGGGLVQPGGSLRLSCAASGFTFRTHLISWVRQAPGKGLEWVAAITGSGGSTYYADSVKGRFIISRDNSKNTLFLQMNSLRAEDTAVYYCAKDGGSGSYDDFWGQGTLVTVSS VL: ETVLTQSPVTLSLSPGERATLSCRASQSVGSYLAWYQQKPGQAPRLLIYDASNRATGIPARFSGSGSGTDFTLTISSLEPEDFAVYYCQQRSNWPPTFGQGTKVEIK", "OD450", 3.26),
    ("57F4E5 fully human TIM-3 antibody (human IgG4, kappa) (antibody, V domains shown) VH: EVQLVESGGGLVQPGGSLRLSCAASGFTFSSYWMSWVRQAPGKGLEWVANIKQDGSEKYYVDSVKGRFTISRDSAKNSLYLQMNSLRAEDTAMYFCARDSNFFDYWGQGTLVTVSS VL: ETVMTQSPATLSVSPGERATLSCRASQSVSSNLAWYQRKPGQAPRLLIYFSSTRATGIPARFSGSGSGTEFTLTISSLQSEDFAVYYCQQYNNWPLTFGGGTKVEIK", "OD450", 3.42),
]

Kindly review the next binder as well.
The reported value for 134H3G6 fully human TIM-3 antibody (human IgG4, kappa) (antibody, V domains shown) VH: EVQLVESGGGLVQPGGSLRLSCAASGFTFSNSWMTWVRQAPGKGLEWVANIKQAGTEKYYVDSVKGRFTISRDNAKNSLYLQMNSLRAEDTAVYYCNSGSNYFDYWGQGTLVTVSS VL: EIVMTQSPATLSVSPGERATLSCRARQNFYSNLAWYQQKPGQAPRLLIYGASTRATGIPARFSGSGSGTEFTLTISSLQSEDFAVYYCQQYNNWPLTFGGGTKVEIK in terms of OD450 is 3.11
